What protein stability index was measured for each of the following?
B1: TMEM106C (parent)
chain: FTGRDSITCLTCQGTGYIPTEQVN

variants of: B1; test: protein stability index of a GFP-peptide fusion (GPS, HEK-293T) (PSI 1-6); higher = more stable; settings: c terminus: a fixed tail appended;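 note: lentivirally expressed fusions sorted by FACS into six bins by GFP to DsRed ratio, PSI derived from sequencing read proportions per bin multiplied by bin number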
Give your answer as a number; write no unit.

**Query** Recorded protein stability index of "FTGRDSITCLDCQGTGYIPTEQVN" , please.
**Result** 2.42

**Query** Now consider "FTGRDSITCLTCQGTGYIPVEQVN" and answer again.
**Result** 2.23

**Query** Now consider "QTGRDSITCLTCQGTGYIPTEQVN" and answer again.
**Result** 4.65

**Query** Now consider "FTGRDSITCLACQGTGYIPTEQVN" and answer again.
**Result** 2.32

**Query** Now consider "FTGRDHITCLTCQGTGYIPTEQVN" and answer again.
**Result** 2.43

**Query** Now consider "FTGRDSITCLTCQGTGVIPTEQVN" and answer again.
**Result** 2.55

**Query** Now consider "FGGRDSITCLTCQGTGYIPTEQVN" and answer again.
**Result** 2.84

**Query** Now consider "FTGRGSITCLTCQGTGYIPTEQVN" and answer again.
**Result** 1.49

**Query** Now consider "FTGRDSITCLTCQETGYIPTEQVN" and answer again.
**Result** 2.28

**Query** Now consider "FTGRDSITCLHCQGTGYIPTEQVN" and answer again.
**Result** 2.06

**Query** Now consider "NTGRDSITCLTCQGTGYIPTEQVN" and answer again.
**Result** 4.48

**Query** Now consider "FTGNDSITCLTCQGTGYIPTEQVN" and answer again.
**Result** 2.8

**Query** Now consider "FTGRDSITCLECQGTGYIPTEQVN" and answer again.
**Result** 2.01

**Query** Now consider "FTGRKSITCLTCQGTGYIPTEQVN" and answer again.
**Result** 1.84

**Query** Now consider "FTGRDSITCLTCQGTGTIPTEQVN" and answer again.
**Result** 2.16

**Query** Now consider "FTGRDSITCLTCQGTGYIPTEQVV" and answer again.
**Result** 2.24

**Query** Now consider "FTGRDSITCLTCQGTHYIPTEQVN" and answer again.
**Result** 2.01

**Query** Now consider "FTGRYSITCLTCQGTGYIPTEQVN" and answer again.
**Result** 3.35

**Query** Now consider "CTGRDSITCLTCQGTGYIPTEQVN" and answer again.
**Result** 3.92

**Query** Now consider "FTFRDSITCLTCQGTGYIPTEQVN" and answer again.
**Result** 1.7

**Query** Now consider "FTGRCSITCLTCQGTGYIPTEQVN" and answer again.
**Result** 3.35

**Query** Now consider "FTGRDSITCLTCQGTGYIPTEQTN" and answer again.
**Result** 2.09

**Query** Now consider "TTGRDSITCLTCQGTGYIPTEQVN" and answer again.
**Result** 4.76

**Query** Now consider "FTGRDSITYLTCQGTGYIPTEQVN" and answer again.
**Result** 2.75

**Query** Now consider "FTGRDSILCLTCQGTGYIPTEQVN" and answer again.
**Result** 2

**Query** Now consider "FTGRDSITCLTCQGTGAIPTEQVN" and answer again.
**Result** 1.8

**Query** Now consider "FTGRDSITCLTCQITGYIPTEQVN" and answer again.
**Result** 2.53

**Query** Now consider "FTGRDSITCLTCQGTGYIPTEQVR" and answer again.
**Result** 2.37

**Query** Now consider "FTGRDSITCLTCQGIGYIPTEQVN" and answer again.
**Result** 2.16

**Query** Now consider "FTGRDSITCLTCQGTGYIPEEQVN" and answer again.
**Result** 1.66

**Query** Now consider "FTGRDSITCLTCQGRGYIPTEQVN" and answer again.
**Result** 2.26

**Query** Now consider "FTGRDSITCRTCQGTGYIPTEQVN" and answer again.
**Result** 2.36

The measured values listed here are drawn from the supplement of paper PMC10567573.
